Target: Tyrosyl-tRNA synthetase, putative (Trypanosoma cruzi (strain CL Brener))
Assay: Trypanosoma cruzi tyrosyl tRNA synthetase (TcYRS) _High Tyrosine SOP
Format: functional
Design: scale not given: in the data most compounds retested in dose-response had high values
Details: 30 µM
Reported Percent Effect values for a set of compounds
Report the value in % with no unit label.

COMPOUND	ASSAY_ENDPOINT	U	REPORTED
Cn1cccc1C(=O)N1CCc2ncc(Cn3cccn3)n2CC1	Percent Effect	%	2.08
O=C([C@H]1C[C@H]2OCC[C@H]2N(CCc2ccccc2)C1)N1CCCCO1	Percent Effect	%	5.41
COCC(C)N(C)C(=O)c1nc(S(C)(=O)=O)n2ccccc12 (configuration not stated)	Percent Effect	%	5.26

Ask | Request the reported Percent Effect associated with Cc1ccnc(OCC(=O)N2CCC(C(N)=O)CC2)n1
Reply | 6.45

Ask | Request the reported Percent Effect associated with O=C1CCC2(CCCN(CCc3ccccc3)C2)N1Cc1cccnc1 (configuration not stated)
Reply | 12.6

// data source = ChEMBL document CHEMBL3988442
